System: F380Y/beta2Delta
Experiment: modulators of BK channel variants, profiling panel, selectivity assay, cell-based, U2OS BacMam, thallium flux, beta subunits (AID 1259406);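 further: initial slope of Thallos dye fluorescence rise after thallium is added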
Conditions: at 30 µM
Active and inactive are the calls of the source.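 How the source made its calls: active means thallium flux through the channel raised or lowered by more than 3 SD from vehicle-only wells, actives on both sides; inactive means the rest.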
# valid calls are Yes = active, No = inactive; nothing else

**Q:** Which outcome was entered for the molecule "CN1CC[C@@H](c2ccc(F)cc2)[C@H](COc2ccc3c(c2)OCO3)C1" in this test?
**A:** No

**Q:** Which outcome was entered for the molecule "c1ccc(Cn2ccnc2)cc1" in this test?
**A:** No

**Q:** Which outcome was entered for the molecule "CN1CC[C@@]23CCCC[C@@H]2[C@@H]1Cc1ccc(O)cc13" in this test?
**A:** No

**Q:** Which outcome was entered for the molecule "C[C@]12CCC(=O)C=C1CC[C@@H]1[C@@H]2CC[C@@]2(C)[C@H]1CC[C@]2(C)O" in this test?
**A:** No

**Q:** Which outcome was entered for the molecule "Cc1csc2sc(C=C(C#N)C#N)c(C)c12" in this test?
**A:** No

**Q:** Which outcome was entered for the molecule "Cc1ccc(S(=O)(=O)N2CN3CCN(C3)C2)cc1" in this test?
**A:** No

**Q:** Which outcome was entered for the molecule NC1=NC(=O)C(c2ccccc2)O1 (stereo not drawn) in this test?
**A:** No

**Q:** Which outcome was entered for the molecule "CS(=O)(=O)Nc1ccc(Cc2noc(-c3ccc4[nH]cc(CCN)c4c3)n2)cc1" in this test?
**A:** No

**Q:** Which outcome was entered for the molecule COC(=O)N1CCN(C(=O)Cc2ccc(Cl)c(Cl)c2)C(CN2CCCC2)C1 (stereo not drawn) in this test?
**A:** No

**Q:** Which outcome was entered for the molecule "CN1C(=O)CN=C(c2ccccc2)c2cc(Cl)ccc21" in this test?
**A:** No

**Q:** Which outcome was entered for the molecule "O=C1CC[C@@]2(O)[C@H]3Cc4ccc(O)c5c4[C@@]2(CCN3CC2CC2)[C@H]1O5" in this test?
**A:** No

**Q:** Which outcome was entered for the molecule "O=C1CN=C(c2ccccc2)c2cc([N+](=O)[O-])ccc2N1" in this test?
**A:** No

**Q:** Which outcome was entered for the molecule "FC(F)(F)c1cccc(N2CCNCC2)c1" in this test?
**A:** No

**Q:** Which outcome was entered for the molecule "Clc1ccc(CON=C(Cn2ccnc2)c2ccc(Cl)cc2Cl)c(Cl)c1" in this test?
**A:** No

**Q:** Which outcome was entered for the molecule "CN1C(=O)CN=C(c2ccccc2)c2cc([N+](=O)[O-])ccc21" in this test?
**A:** No

**Q:** Which outcome was entered for the molecule "C[C@]12CC[C@H](O)CC1=CC[C@@H]1[C@@H]2CC[C@@]2(C)[C@H]1CC[C@]2(C)O" in this test?
**A:** No

**Q:** Which outcome was entered for the molecule "COc1ccc2[nH]cc(CCN)c2c1" in this test?
**A:** No

**Q:** Which outcome was entered for the molecule "CN(C)[C@@H]1C(=O)C(C(N)=O)=C(O)[C@@]2(O)C(=O)C3=C(O)c4c(O)cccc4[C@@](C)(O)[C@H]3[C@H](O)[C@@H]12" in this test?
**A:** No

**Q:** Which outcome was entered for the molecule "Oc1cc2c(cc1O)[C@H]1c3ccccc3CN[C@@H]1CC2" in this test?
**A:** No

**Q:** Which outcome was entered for the molecule "CCOC(=O)C1(c2ccccc2)CCN(CCC(C#N)(c2ccccc2)c2ccccc2)CC1" in this test?
**A:** No

**Q:** Which outcome was entered for the molecule CCCC(C)(COC(N)=O)COC(=O)NC(C)C (stereo not drawn) in this test?
**A:** No

**Q:** Which outcome was entered for the molecule Clc1ccc(COC(Cn2ccnc2)c2ccc(Cl)cc2Cl)c(Cl)c1 (stereo not drawn) in this test?
**A:** No

**Q:** Which outcome was entered for the molecule CC1CCC[C@H](O)CCCCCc2cc(O)cc(O)c2C(=O)O1 (stereo partly drawn) in this test?
**A:** No

**Q:** Which outcome was entered for the molecule "C[C@]12CC(=CO)C(=O)C[C@@H]1CC[C@@H]1[C@@H]2CC[C@@]2(C)[C@H]1CC[C@]2(C)O" in this test?
**A:** Yes

**Q:** Which outcome was entered for the molecule "C=C1C[C@@H]2[C@H](CC[C@]3(C)C(=O)CC[C@@H]23)[C@@]2(C)C=CC(=O)C=C12" in this test?
**A:** No

**Q:** Which outcome was entered for the molecule "COc1ccc2[nH]cc(C3=CCNCC3)c2c1" in this test?
**A:** No

**Q:** Which outcome was entered for the molecule CN1C(=O)COc2c(C(=O)NC3CN4CCC3CC4)cc(Cl)cc21 (stereo not drawn) in this test?
**A:** No

**Q:** Which outcome was entered for the molecule CCOC(=O)c1cncn1C(C)c1ccccc1 (stereo not drawn) in this test?
**A:** No
